value-type: melting point

Sample records with melting point:
| smiles | result |
| --- | --- |
| Cc1ccc2nc(COc3ccc(F)cc3)oc(=O)c2c1 | 130.8 to 131.9 °C |
| Cn1c(COc2ccc(Cl)cc2Cl)nc2ccccc2c1=O | 172.1 to 173.4 °C |
| O=c1oc(COc2ccc(Cl)cc2Cl)nc2cc(Cl)ccc12 | 139.6 to 142.5 °C |

Working through the 8 compounds below one at a time, give melting point for each.
1. Nn1c(COc2ccc(Cl)cc2)nc2ccc(Cl)cc2c1=O
2. Cn1c(COc2ccc(Cl)cc2)nc2ccc(Cl)cc2c1=O
3. COc1cc2nc(COc3ccc(F)cc3)oc(=O)c2cc1OC
4. Cc1ccc2nc(COc3ccc(Cl)cc3)n(C)c(=O)c2c1
5. Cc1ccc2nc(COc3ccc(Cl)cc3)oc(=O)c2c1
6. Nn1c(COc2ccc(Cl)cc2)nc2cccc(Cl)c2c1=O
7. O=c1oc(COc2ccc(F)cc2)nc2ccc(Cl)cc12
8. O=c1oc(COc2ccc(Cl)cc2Cl)nc2ccccc12

result:
["178.1 to 179.4 °C", "179.9 to 181.2 °C", "144.7 to 146 °C", "196.4 to 197.6 °C", "143.7 to 145.6 °C", "191.8 to 193.3 °C", "159.8 to 161.7 °C", "118.5 to 119.3 °C"]

---

value-type: melting point

Sample records with melting point:
| smiles | melting point |
| --- | --- |
| O=c1oc(COc2ccc(F)cc2)nc2cccc(Cl)c12 | 155.9 to 156.7 °C |
| COc1cc2nc(COc3ccc(Cl)cc3Cl)oc(=O)c2cc1OC | 161.9 to 163.2 °C |
| O=c1oc(COc2ccc(Cl)cc2Cl)nc2ccc(Cl)cc12 | 157.9 to 160.1 °C |
| Nn1c(COc2ccc(Cl)cc2Cl)nc2ccc(Cl)cc2c1=O | 223.6 to 224.9 °C |

Working through the 2 compounds below one at a time, give melting point for each.
1. Cc1ccc2nc(COc3ccc(Cl)cc3)n(N)c(=O)c2c1
2. Nn1c(COc2ccc(Cl)cc2)nc2cc(Cl)ccc2c1=O

result:
1: 177.3 to 178.6 °C; 2: 129.5 to 131.6 °C

---

System: rape Brassica napus
Assay: Concentration-dependent root elongation inhibition of rape (IC50)
Assay type: in vivo
Conditions: Brassica napus; rape root growth; read-out: IC50, inhibitory efficacy against the rape root growth
value-type: IC50 (nM)
Numbers only, in nM.

query: Given the compound `O=c1oc(COc2ccc(Cl)cc2Cl)nc2ccc(Cl)cc12` , what is its reported IC50?
result: 10.4

---

System: rape Brassica napus
Test: Petri dish culture, growth inhibition of root and stalk of rape
Assay type: in vivo
Conditions: Brassica napus, 120 h, 1 mg/L, stalk growth, 5 days, read-out: Relative inhibition, stalk
I would appreciate it if you labelled entries Y when inhibition at 1 µg/mL is 40% or higher, otherwise N.

| compound | answer-label |
| --- | --- |
| Nn1c(COc2ccc(Cl)cc2Cl)nc2ccccc2c1=O [4f] | Y |

query: Given Cc1ccc2nc(COc3ccc(Cl)cc3)n(N)c(=O)c2c1 [4d] , state whether its inhibition at 1 µg/mL is at least 40%.
result: N

query: Given Cc1ccc2nc(COc3ccccc3)oc(=O)c2c1 [3e] , state whether its inhibition at 1 µg/mL is at least 40%.
result: N

query: Given Nn1c(COc2ccc(Cl)cc2Cl)nc2cccc(Cl)c2c1=O [4g] , state whether its inhibition at 1 µg/mL is at least 40%.
result: N

---

Kindly state inhibition at 10 µg/mL for each of the entries shown.
Tested on: barnyard grass Echinochloa crusgalli
Assay: Petri dish culture, growth inhibition of root and stalk of barnyard grass
Type: in vivo
Settings: Echinochloa crus-galli, 120 h, 10 mg/L, root growth, 5 days, read-out: Relative inhibition, root
Give bare numbers, in %.

Sample records with inhibition at 10 µg/mL:
| smiles | value-type | quantitative-result |
| --- | --- | --- |
| O=c1oc(COc2ccc(Cl)cc2Cl)nc2cccc(Cl)c12 | inhibition at 10 µg/mL | 57.5 |
| Nn1c(COc2ccc(Cl)cc2)nc2ccc(Cl)cc2c1=O | inhibition at 10 µg/mL | 9.9 |
| Cc1ccc2nc(COc3ccccc3)oc(=O)c2c1 | inhibition at 10 µg/mL | 71.4 |
| O=c1oc(COc2ccc(Cl)cc2)nc2ccccc12 | inhibition at 10 µg/mL | 79.5 |
| Cn1c(COc2ccc(Cl)cc2)nc2cc(Cl)ccc2c1=O | inhibition at 10 µg/mL | 29.2 |

Working through the 2 compounds below one at a time, give inhibition at 10 µg/mL for each.
1. O=c1oc(COc2ccccc2)nc2ccccc12
2. Nn1c(COc2ccc(Cl)cc2)nc2cccc(Cl)c2c1=O

result:
1. 64.8
2. 43.1

Working through the 4 compounds below one at a time, give inhibition at 10 µg/mL for each.
1. Nn1c(COc2ccc(Cl)cc2Cl)nc2ccccc2c1=O
2. Cn1c(COc2ccc(Cl)cc2Cl)nc2ccc(Cl)cc2c1=O
3. O=c1oc(COc2ccc(F)cc2)nc2cccc(Cl)c12
4. Nn1c(COc2ccc(Cl)cc2)nc2cc(Cl)ccc2c1=O

result:
1: 22.2; 2: 31.9; 3: 91; 4: 42.1

---

Kindly state inhibition at 1 µg/mL for each of the entries shown.
System: rape Brassica napus
Assay: Petri dish culture, growth inhibition of root and stalk of rape
Type: in vivo
Conditions: Brassica napus, 120 h, 1 mg/L, stalk growth, 5 days, read-out: Relative inhibition, stalk
Give bare numbers, in %.

| smiles | quantitative-result |
| --- | --- |
| Nn1c(COc2ccc(Cl)cc2Cl)nc2ccc(Cl)cc2c1=O | 10.7 |
| COc1cc2nc(COc3ccccc3)oc(=O)c2cc1OC | 32.9 |
| O=c1oc(COc2ccccc2)nc2cc(Cl)ccc12 | 44.9 |

Working through the 5 compounds below one at a time, give inhibition at 1 µg/mL for each.
1. O=c1oc(COc2ccc(F)cc2)nc2cccc(Cl)c12
2. O=c1oc(COc2ccc(F)cc2)nc2cc(Cl)ccc12
3. Cc1ccc2nc(COc3ccc(Cl)cc3)oc(=O)c2c1
4. O=c1oc(COc2ccc(Cl)cc2Cl)nc2cc(Cl)ccc12
5. O=c1oc(COc2ccc(Cl)cc2)nc2cccc(Cl)c12

result:
25.7
65.2
29.3
82.3
62

---

Tested on: barnyard grass Echinochloa crusgalli
Assay: Petri dish culture, growth inhibition of root and stalk of barnyard grass
Assay type: in vivo
Settings: Echinochloa crus-galli, 120 h, 10 mg/L, root growth, 5 days, read-out: Relative inhibition, root
Protocol: The synthesized compounds were tested for the herbicidal activity on model plants including a monocotyledon (barnyard grass) and a dicotyledon (rape) by the reported Petri dish culture method. The percent inhibitory ratios against the growth of root and stalk of barnyard grass and rape at different dosage concentrations were calculated, and the compounds with appreciable inhibitory potencies are selected and shown in Table 1 and Table 2. […]
value-type: inhibition at 10 µg/mL (%)
One number for each entry, in %.

Working through the 6 compounds below one at a time, give inhibition at 10 µg/mL for each.
1. Cn1c(COc2ccc(Cl)cc2)nc2ccc(Cl)cc2c1=O
2. O=c1oc(COc2ccc(F)cc2)nc2cc(Cl)ccc12
3. O=c1oc(COc2ccc(Cl)cc2)nc2cccc(Cl)c12
4. Cn1c(COc2ccc(Cl)cc2Cl)nc2ccccc2c1=O
5. COc1cc2nc(COc3ccccc3)oc(=O)c2cc1OC
6. O=c1oc(COc2ccc(Cl)cc2)nc2cc(Cl)ccc12

result:
[33.7, 96.7, 88.7, 29.4, 63, 92.3]

---

Kindly state melting point for each of the entries shown.

Sample records with melting point:
| smiles | result |
| --- | --- |
| O=c1oc(COc2ccc(Cl)cc2Cl)nc2cccc(Cl)c12 | 161.9 to 163.2 °C |
| COc1cc2nc(COc3ccc(Cl)cc3)n(C)c(=O)c2cc1OC | 201.8 to 202.7 °C |

Working through the 6 compounds below one at a time, give melting point for each.
1. Cn1c(COc2ccc(Cl)cc2)nc2cc(Cl)ccc2c1=O
2. Cn1c(COc2ccc(Cl)cc2)nc2cccc(Cl)c2c1=O
3. COc1cc2nc(COc3ccc(Cl)cc3Cl)n(C)c(=O)c2cc1OC
4. O=c1oc(COc2ccccc2)nc2ccccc12
5. O=c1oc(COc2ccccc2)nc2cccc(Cl)c12
6. O=c1oc(COc2ccc(Cl)cc2)nc2cc(Cl)ccc12

result:
202.4 to 203.9 °C
184.9 to 185.7 °C
243.9 to 245.2 °C
87.9 to 92.1 °C
118.3 to 120.9 °C
189.9 to 191.8 °C

Working through the 6 compounds below one at a time, give melting point for each.
1. COc1cc2nc(COc3ccc(Cl)cc3)oc(=O)c2cc1OC
2. O=c1oc(COc2ccc(F)cc2)nc2cc(Cl)ccc12
3. O=c1oc(COc2ccc(Cl)cc2)nc2ccc(Cl)cc12
4. O=c1oc(COc2ccc(F)cc2)nc2ccccc12
5. COc1cc2nc(COc3ccccc3)oc(=O)c2cc1OC
6. O=c1oc(COc2ccc(Cl)cc2)nc2cccc(Cl)c12

result:
["118.5 to 119.3 °C", "123.6 to 124.9 °C", "153.2 to 154.6 °C", "112.5 to 114.6 °C", "132.1 to 134.3 °C", "144.3 to 145.7 °C"]

Working through the 8 compounds below one at a time, give melting point for each.
1. Nn1c(COc2ccc(Cl)cc2Cl)nc2cccc(Cl)c2c1=O
2. O=c1oc(COc2ccccc2)nc2ccc(Cl)cc12
3. COc1cc2nc(COc3ccc(Cl)cc3)n(N)c(=O)c2cc1OC
4. Nn1c(COc2ccc(Cl)cc2Cl)nc2ccccc2c1=O
5. Cn1c(COc2ccc(Cl)cc2Cl)nc2ccc(Cl)cc2c1=O
6. COc1cc2nc(COc3ccc(Cl)cc3Cl)n(N)c(=O)c2cc1OC
7. O=c1oc(COc2ccc(Cl)cc2)nc2ccccc12
8. Cc1ccc2nc(COc3ccccc3)oc(=O)c2c1

result:
1. 201.5 to 202 °C
2. 113.1 to 115.2 °C
3. 202.8 to 204.1 °C
4. 214.6 to 215.7 °C
5. 240.1 to 241.8 °C
6. 272.3 to 273.1 °C
7. 147.5 to 149.2 °C
8. 133.3 to 135.1 °C

query: Given the compound `O=c1oc(COc2ccccc2)nc2cc(Cl)ccc12` , what is its reported melting point?
result: 117.3 to 119.9 °C
